system: androgen receptor (AR) (Homo sapiens)
Sequence (P10275 1-920): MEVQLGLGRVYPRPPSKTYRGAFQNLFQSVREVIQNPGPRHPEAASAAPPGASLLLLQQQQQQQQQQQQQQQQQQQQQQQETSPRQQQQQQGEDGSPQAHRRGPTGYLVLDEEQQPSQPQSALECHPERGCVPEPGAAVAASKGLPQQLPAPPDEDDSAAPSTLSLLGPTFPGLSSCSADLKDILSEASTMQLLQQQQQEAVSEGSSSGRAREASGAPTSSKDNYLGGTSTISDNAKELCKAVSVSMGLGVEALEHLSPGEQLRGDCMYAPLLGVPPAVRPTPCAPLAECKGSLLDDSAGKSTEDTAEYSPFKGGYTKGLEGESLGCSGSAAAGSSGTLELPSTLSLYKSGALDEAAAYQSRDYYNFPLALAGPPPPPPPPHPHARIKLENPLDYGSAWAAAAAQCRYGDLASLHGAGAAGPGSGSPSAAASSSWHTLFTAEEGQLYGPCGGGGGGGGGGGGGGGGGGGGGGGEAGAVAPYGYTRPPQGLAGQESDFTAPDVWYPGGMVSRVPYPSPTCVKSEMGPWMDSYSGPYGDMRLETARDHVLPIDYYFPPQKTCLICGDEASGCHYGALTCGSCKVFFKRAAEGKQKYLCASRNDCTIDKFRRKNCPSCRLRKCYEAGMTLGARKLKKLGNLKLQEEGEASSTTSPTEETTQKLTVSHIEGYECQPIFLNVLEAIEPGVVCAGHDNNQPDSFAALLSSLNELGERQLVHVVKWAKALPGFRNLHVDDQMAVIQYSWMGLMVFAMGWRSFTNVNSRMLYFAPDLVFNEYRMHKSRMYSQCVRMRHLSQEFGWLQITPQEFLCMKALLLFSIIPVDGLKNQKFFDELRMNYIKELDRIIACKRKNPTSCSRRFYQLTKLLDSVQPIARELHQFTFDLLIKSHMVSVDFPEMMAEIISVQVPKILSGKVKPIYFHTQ
run.description: Degradation of androgen receptor (AR) protein in VCaP cells by ELISA
Type: cell-based
condition.description: VCaP, AR degradation, VCaP cells, 16 h, ELISA, Table 3-2; read-out: Dmax (%)
// reported Dmax per item

Look over these answered cases.
{"compound": "N#Cc1ccc(O[C@H]2CC[C@H](NC(=O)c3nnc(N4CC5(CCN(CC6CCN(c7cc8c(cc7F)C(=O)N(C7CCC(=O)NC7=O)C8=O)CC6)CC5)C4)s3)CC2)cc1Cl (some centres unmarked) [Compound 107]", "system": "androgen receptor (AR) (Homo sapiens)", "Dmax": "> 80%"}
{"compound": "CC1(C)[C@H](Oc2ccc(C#N)c(Cl)c2)C(C)(C)[C@H]1N1Cc2nc(C#CC3CCC(N4CC5CC4CN5c4cc5c(cc4F)C(=O)N(C4CCC(=O)NC4=O)C5=O)CC3)cnc2C1=O (some centres unmarked) [Compound 386]", "system": "androgen receptor (AR) (Homo sapiens)", "Dmax": "40 to 60%"}
{"compound": "CC1(C)[C@H](Oc2ccc(C#N)c(Cl)c2)C(C)(C)[C@H]1N1Cc2nc(C#C[C@H]3C[C@H](N4CCN(c5ccc6c(c5)C(=O)N(C5CCC(=O)NC5=O)C6=O)CC4)C3)cnc2C1=O (some centres unmarked) [Compound 390]", "system": "androgen receptor (AR) (Homo sapiens)", "Dmax": "60 to 80%"}
{"compound": "CC1(C)[C@H](Oc2ccc(C#N)c(Cl)c2)C(C)(C)[C@H]1N1Cc2nc(N3CCC(CN4CCN(c5ccc6c(c5)C(=O)N(C5CCC(=O)NC5=O)C6=O)CC4)CC3)cnc2C1=O (some centres unmarked) [Compound 385]", "system": "androgen receptor (AR) (Homo sapiens)", "Dmax": "60 to 80%"}

Proceeding to the next compound to report its Dmax.
Request: // query Dmax value for entry CC1(C)[C@H](Oc2ccc(C#N)c(Cl)c2)C(C)(C)[C@H]1N1Cc2nc(C#C[C@H]3C[C@H](N4CCN(c5cc(=O)n(C6CCC(=O)NC6=O)cn5)CC4)C3)ccc2C1=O (some centres unmarked) [Compound 395]
Result: 40 to 60%
